# Tested on: mESC Bmi1-luciferase reporter, firefly/renilla ratio, 24 h
# PROTOCOL DESCRIPTION: compounds raising Bmi1 reporter signal – mouse embryonic stem cells, luciferase, cherry-pick, esBAF inhibitor project, dose response (AID 651717);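 note: luciferase knocked into Bmi1 locus with EF-1a renilla as cell number control; rising ratio signals esBAF inhibition which derepresses Bmi1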
EXPERIMENTAL READOUT: AC40

Can you give me AC40 for all of these, one by one?
1. CN(CC(=O)Nc1ccccc1Br)C(=O)c1cc2c(s1)CCCCC2
2. COc1cccc(-c2nc(-c3ccc(NC(=O)c4cccs4)cc3)no2)c1
3. CCN(CC)c1ccc2cc(C(=O)c3cccs3)c(=O)oc2c1
4. O=C(c1noc2c1CCCC2)N1CCc2ccccc2C1
5. O=C(Nc1ccc(Cl)c(Cl)c1)c1ccccc1NC(=O)C1CC=CCC1C(=O)O (stereo unspecified)
6. Cc1ccc(NC(=O)C(=O)Nc2ccc(C)cn2)nc1

2.75 µM
4.26 µM
11.6 µM
2.99 µM
7.6 µM
0.497 µM

====

Please respond with reported AC40 for every item in the list.
# System: mESC Bmi1-luciferase reporter, firefly/renilla ratio, 24 h
# PROTOCOL DESCRIPTION: compounds raising Bmi1 reporter signal – mouse embryonic stem cells, luciferase, cherry-pick, esBAF inhibitor project, dose response (AID 651717);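 note: luciferase knocked into Bmi1 locus with EF-1a renilla as cell number control; rising ratio signals esBAF inhibition which derepresses Bmi1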

>>> endpoint_value("CCCC(=O)Nc1nc(-c2ccc(OC)cc2)cs1")
"7.09 µM"
>>> endpoint_value("COc1ccc(C(=O)Nc2ccc(Cl)cn2)cc1Cl")
"2.38 µM"
>>> endpoint_value("Cc1ccc(-c2csc(NC(=O)c3ccno3)n2)cc1")
"8.99 µM"
>>> endpoint_value("CC(=O)Oc1ccc2cc(-c3ccccc3)c(=O)oc2c1")
"4.46 µM"
>>> endpoint_value("O=C(NCCc1ccccc1)c1ccc(Cl)c(S(=O)(=O)N2CCCC2)c1")
"8.04 µM"

Can you give me AC40 for all of these, one by one?
1. COc1ccc(C(=O)Nc2ccc3nc(C)c(C)nc3c2)cc1
2. CC(C)Cc1ccc(-c2ccc3nccn3c2)cc1
3. CC(=O)Nc1cnc(-c2cc(C)c(O)c(C)c2)cn1
4. Nc1cc2c(cc1Cl)-c1ccccc1C2
5. COc1ccc(OCc2cc(C(=O)N(Cc3nccn3C)C(C)C)no2)c2ccccc12

8.3 µM
1.94 µM
12 µM
6.53 µM
3.93 µM

====

# System: mESC Bmi1-luciferase reporter, firefly/renilla ratio, 24 h
# PROTOCOL DESCRIPTION: compounds raising Bmi1 reporter signal – mouse embryonic stem cells, luciferase, cherry-pick, esBAF inhibitor project, dose response (AID 651717);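 note: luciferase knocked into Bmi1 locus with EF-1a renilla as cell number control; rising ratio signals esBAF inhibition which derepresses Bmi1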
EXPERIMENTAL READOUT: AC40

>>> endpoint_value("COc1ccc(S(=O)(=O)Nc2cc(C(=O)NC3CCCCCC3)ccc2N2CCOCC2)cc1")
"7.61 µM"
>>> endpoint_value("COc1ccc(/C=C/C(=O)Oc2cccc(/C=N/NC(=O)Cc3ccc(Br)cc3)c2)cc1")
"4.57 µM"
>>> endpoint_value("Cn1cccc1-c1nc2ccc(NC(=O)c3cccs3)cc2[nH]1")
"11.7 µM"
>>> endpoint_value("O=C(Nc1ccncc1)c1ccc2ncsc2c1")
"22.8 µM"
>>> endpoint_value("Cc1ccc(-c2nc(COC(=O)c3c(C)noc3C)cs2)cc1")
"4.93 µM"

Can you give me AC40 for all of these, one by one?
1. CN(C)S(=O)(=O)c1ccc(C(=O)Nc2ccc3c(c2)CCC3)cc1
2. COc1ccccc1-c1cnc(C(O)c2ccc(C)cc2)[nH]1 (stereo not given)
3. O=C(O)c1ccc(N/N=C/c2cccc3nccnc23)cc1
4. CC(C)CN=c1cc(-c2ccccc2)oc2ccc(Cl)cc12

4.91 µM
10.2 µM
4.04 µM
2.27 µM

Can you give me AC40 for all of these, one by one?
1. COc1ccc(NC(=O)Cc2ccccc2)cc1
2. c1ccc(Nc2ccc3ccccc3c2)cc1
3. CSCc1nc2sc(C(=O)Nc3nc(C)cs3)c(C)c2c(=O)[nH]1
4. Cc1c(C(=O)NCc2cccnc2)sc2nc(-c3ccccc3)cn12

1: 8.22 µM; 2: 3.83 µM; 3: 4.19 µM; 4: 30.8 µM

Can you give me AC40 for all of these, one by one?
1. O=C(Nc1ccc(F)cc1F)NC1CCCCCCC1
2. CCC(C)NC(=O)c1cc(-c2ccccc2O)on1 (stereo not given)

["5.14 µM", "11.1 µM"]

Can you give me AC40 for all of these, one by one?
1. Cc1nc(C)c(-c2csc(Nc3ccc(Cl)cn3)n2)s1
2. Cc1cc2oc(=O)cc(CN(C)Cc3ccccc3F)c2cc1Cl
3. O=C(NCCc1ccccc1)c1nccc2ccccc12
4. NC(=O)c1ccccc1-c1nc(-c2ccccc2)no1
5. COc1ccc(C(=O)N2CCc3ccccc32)cc1
6. COc1cc(SC)ccc1C(=O)NCC1CCCCC1
7. COc1ccc(CC(=O)Nc2ccc(-c3cn4ccc(C)cc4n3)cc2)cc1
8. CCC(=O)Nc1cccc(-c2nc3ccccc3o2)c1

1: 8.77 µM; 2: 4.33 µM; 3: 6.84 µM; 4: 4.23 µM; 5: 5.97 µM; 6: 3.03 µM; 7: 18.8 µM; 8: 15.7 µM

Can you give me AC40 for all of these, one by one?
1. CN(CC(=O)Nc1cccc(F)c1)C(=O)c1sc2ccccc2c1Cl
2. Cn1c(/N=C(\N)c2ccccc2)nc2ccccc21

23.3 µM
0.587 µM
